Hey, just so you know, these numbers are from patent US20220274938A1.

I'd be grateful if you could share measured activation at 50 µM for these entries.
tested on: isolated rat soleus muscles; test: Measurement of force in an in vitro model: isolated rat soleus nerve-muscle preparation with tubocurarine; format: cell-based; details: Rattus norvegicus, 40 min; 50 μM test compound, after 40 mins of compound exposure; 115 nM tubocurarine for 90 mins; read-out: Point increase (%) of initial force that was restored
Give bare numbers, in %.

Lab note: each compound below needs its activation at 50 µM filled in.
1. C[C@H](Oc1ccc(Cl)cc1)C(=O)NOC1CC(F)(F)C1
2. CONC(=O)[C@H](C)Oc1ccc(Cl)cc1F
3. C[C@H](Oc1ccc(Cl)cc1)C(=O)NOCc1nccs1
4. CC(=O)N1CCC(ON(C(C)=O)C(=O)[C@H](C)Oc2ccc(Cl)cc2)C1 (some centres unmarked)
5. C[C@H](Oc1ccc(Cl)cc1)C(=O)NOCC1CCC1

1. 23
2. 24
3. 21
4. 23
5. 36

* * *

target: human CIC-1 channels (Homo sapiens, UniProt P35523); construct: host or cells: CHO (Chinese hamster ovary) cells, cryopreserved, used directly after thawing; assay: Automated patch-clamp on the human isoform of CIC-1 expressed in CHO cells; format: cell-based; settings: compound added to the intracellular solution vs control cell patches, positive shift reflects inhibition
Sequence (P35523 whole entry, canonical isoform): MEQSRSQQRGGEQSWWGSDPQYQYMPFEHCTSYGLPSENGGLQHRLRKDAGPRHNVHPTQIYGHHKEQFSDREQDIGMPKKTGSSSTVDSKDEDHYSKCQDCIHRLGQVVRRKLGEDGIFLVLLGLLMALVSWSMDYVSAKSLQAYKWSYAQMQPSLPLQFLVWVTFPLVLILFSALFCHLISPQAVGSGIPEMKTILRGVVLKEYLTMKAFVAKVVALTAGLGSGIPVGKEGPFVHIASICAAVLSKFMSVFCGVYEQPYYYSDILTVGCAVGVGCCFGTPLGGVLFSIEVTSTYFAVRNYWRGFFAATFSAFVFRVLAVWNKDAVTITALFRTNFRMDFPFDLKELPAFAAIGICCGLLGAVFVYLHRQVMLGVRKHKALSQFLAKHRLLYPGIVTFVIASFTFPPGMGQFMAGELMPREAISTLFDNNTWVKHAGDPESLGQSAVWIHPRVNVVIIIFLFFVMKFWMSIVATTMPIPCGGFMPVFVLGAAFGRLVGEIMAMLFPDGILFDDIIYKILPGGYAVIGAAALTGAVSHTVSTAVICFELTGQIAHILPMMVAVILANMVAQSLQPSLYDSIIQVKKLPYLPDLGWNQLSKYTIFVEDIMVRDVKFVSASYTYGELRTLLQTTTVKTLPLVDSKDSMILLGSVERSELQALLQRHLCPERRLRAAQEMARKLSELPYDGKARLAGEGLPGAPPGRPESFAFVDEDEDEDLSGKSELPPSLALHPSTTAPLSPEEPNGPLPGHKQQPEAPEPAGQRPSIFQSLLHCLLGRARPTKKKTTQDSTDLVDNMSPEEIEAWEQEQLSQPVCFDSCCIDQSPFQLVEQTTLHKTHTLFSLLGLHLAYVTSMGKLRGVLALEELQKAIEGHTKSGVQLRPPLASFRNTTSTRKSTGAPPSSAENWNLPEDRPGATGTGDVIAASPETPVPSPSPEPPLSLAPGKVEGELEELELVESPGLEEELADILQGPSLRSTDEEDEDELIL
Property name: ΔV1/2 (difference in half activation voltage of CIC-1 channels) (mV)
Numbers only, in mV.

Use these answered entries as a reference point.
Give its ΔV1/2 (difference in half activation voltage of CIC-1 channels) value. Item: C[C@H](Oc1ccc(Br)cc1Br)C(=O)NC#N 6.2

Give its ΔV1/2 (difference in half activation voltage of CIC-1 channels) value. Item: CC(=O)N1CCC(ONC(=O)[C@H](C)Oc2ccc(Br)cc2)C1 (stereo partly shown) 10.3

Give its ΔV1/2 (difference in half activation voltage of CIC-1 channels) value. Item: C[C@H](Oc1ccc(Cl)cc1)C(=O)NC#N 21.2

Give its ΔV1/2 (difference in half activation voltage of CIC-1 channels) value. Item: CC(C)[C@H](Oc1ccc(Br)cc1)C(=O)NC#N 26.6

Give its ΔV1/2 (difference in half activation voltage of CIC-1 channels) value. Item: CC[C@H](Oc1ccc(Br)cc1)c1nn[nH]n1 13.9

Lab note: each compound below needs its ΔV1/2 (difference in half activation voltage of CIC-1 channels) filled in.
1. C[C@H](Oc1ccc(Cl)cc1)C(=O)NOC1CCC1
2. C[C@H](Oc1ccc(Br)cc1F)c1nn[nH]n1

1: 9.9; 2: 38.4

* * *

system: isolated rat soleus muscles; test: Measurement of force in an in vitro model: isolated rat soleus nerve-muscle preparation with tubocurarine; assay type: cell-based; details: Rattus norvegicus, 40 min; 50 μM test compound, after 40 mins of compound exposure; 115 nM tubocurarine for 90 mins; read-out: Point increase (%) of initial force that was restored
// NOT MET strictly below 30% in activation at 50 µM; MET otherwise

The following compounds have reported results that may help.
Check the entry C[C@H](Oc1ccc(Cl)cc1)C(=O)NOCCC1CCCC1 : does activation at 50 µM equal or exceed 30%? NOT MET

Check the entry C[C@H](Oc1ccc(Cl)cc1)C(=O)NOCc1ccon1 : does activation at 50 µM equal or exceed 30%? MET

Check the entry C=Cc1cc(Cl)ccc1O[C@@H](C)c1nnn[nH]1 : does activation at 50 µM equal or exceed 30%? NOT MET

New cases:
Check the entry COC(=O)CONC(=O)[C@H](C)Oc1ccc(Cl)cc1 : does activation at 50 µM equal or exceed 30%? MET

Check the entry CC(=O)NCCON(C(C)=O)C(=O)[C@H](C)Oc1ccc(Cl)cc1 : does activation at 50 µM equal or exceed 30%? NOT MET

Check the entry C[C@H](Oc1ccc(Cl)cc1)C(=O)NOC1CCCCO1 (stereo partly drawn) : does activation at 50 µM equal or exceed 30%? NOT MET

Check the entry CONC(=O)[C@H](C)Oc1ccc(Cl)cc1 : does activation at 50 µM equal or exceed 30%? MET

Check the entry C[C@H](Oc1ccc(Cl)cc1)C(=O)NOCC1CC1 : does activation at 50 µM equal or exceed 30%? NOT MET

Check the entry CC(=O)N1CC(ON(C(C)=O)C(=O)[C@H](C)Oc2ccc(Cl)cc2)C1 : does activation at 50 µM equal or exceed 30%? NOT MET
